Entries annotated with measured Isolated Heart Assay dP/dtmax (%)
- Test system: isolated perfused rat hearts
- run description: Ex vivo isolated perfused rat heart (Langendorff) assay, load independent inotropic/lusitropic effects
- assay conditions: contractility, percent change over vehicle
endpoint name: Isolated Heart Assay dP/dtmax (%)

molecule	endpoint name	assay result
COc1cccc(OC)c1-n1c(NS(=O)(=O)[C@H](C)Cc2ccc(Cl)cc2)nnc1-c1ccco1 (single isomer, unassigned)	Isolated Heart Assay dP/dtmax (%)	18.8
COc1cccc(OC)c1-n1c(NS(=O)(=O)CCN2C(=O)N(C)CC[C@@H]2C)nnc1-c1ccc(C)o1 (single isomer, unassigned)	Isolated Heart Assay dP/dtmax (%)	24.6
COc1cccc(OC)c1-n1c(NS(=O)(=O)CCc2ccc(F)cc2C#N)nnc1-c1ccco1	Isolated Heart Assay dP/dtmax (%)	25.9
COc1cccc(OC)c1-n1c(NS(=O)(=O)[C@@H](C)[C@H](OC)c2ncc(C)cn2)nnc1-c1ccc(C)o1	Isolated Heart Assay dP/dtmax (%)	34.5
COc1cccc(OC)c1-n1c(NS(=O)(=O)CCc2ccc(F)cn2)nnc1-c1ccco1	Isolated Heart Assay dP/dtmax (%)	22.1
COc1cccc(OC)c1-n1c(NS(=O)(=O)[C@@H](C)Cc2ncc(F)cn2)nnc1-c1ccco1 (single isomer, unassigned)	Isolated Heart Assay dP/dtmax (%)	40.6

###

- target system: UniProt P35414
- run description: [35S]GTPγS binding assay on membranes from CHO cells stably expressing human APJ receptor
- assay conditions: membranes of CHO cells stably expressing human APJ receptor, means of several independent experiments, read-out: Activity hAPJ SPA EC50 IP
- Experimental: The human APJ receptor was cloned by polymerase chain reaction and the gene encoding the receptor was subcloned in pFLAG-CMV™-3 expression vector (Sigma, Saint Louis, Mo. USA) in-house at Amgen. […] The optimum experimental conditions for the concentrations of GDP, MgCl2, and NaCl in the assay buffer were initially determined. […] Nonspecific binding was determined in the presence of 100 μM GTPγS and was always less than 0.2% of total binding. […]
endpoint name: EC50 (nM)

compound	target system	endpoint name	assay result
COc1cccc(OC)c1-n1c(NS(=O)(=O)[C@H](C)[C@H](O)c2oc(C)nc2C)nnc1-c1ccc(C)o1 (racemic) [Example 82.0]	UniProt P35414	EC50	18
COc1cccc(OC)c1-n1c(NS(=O)(=O)[C@@H](C)[C@H](O)c2cc3ccccn3n2)nnc1-c1ccc(C)o1 (single isomer, unassigned) [Example 266.0]	UniProt P35414	EC50	0.21
COc1ncnc(OC)c1-n1c(NS(=O)(=O)CCc2ccc(F)cc2C#N)nnc1-c1ccco1 [Example 252.0]	UniProt P35414	EC50	9.7

###

- target system: APJ receptor (Homo sapiens (Human))
- run description: [35S]GTPγS binding assay on membranes from CHO cells stably expressing human APJ receptor
- assay conditions: membranes of CHO cells stably expressing human APJ receptor, means of several independent experiments, read-out: Activity hAPJ SPA EC50 IP
pEC50: −log10 of the molar value.
Entries annotated with measured pEC50
endpoint name: pEC50

molecule	endpoint name	assay result
COc1cccc(OC)c1-n1c(NS(=O)(=O)[C@H]2C[C@@H](O)CN(c3nc(C)cc(C)n3)C2)nnc1-c1ccc(C)o1 (racemic) [Example 326.0]	pEC50	9.62
COc1cccc(OC)c1-n1c(NS(=O)(=O)[C@H](C)[C@@H](O)c2coc(C)n2)nnc1-c1ccc(C)o1 (racemic) [Example 284.0]	pEC50	8.80
COc1cccc(OC)c1-n1c(NS(=O)(=O)[C@H](C)Cc2ccc(Br)cn2)nnc1-c1ccco1 (single isomer, unassigned) [Example 23.0]	pEC50	9.44
COc1cccc(OC)c1-n1c(NS(=O)(=O)[C@H]2C[C@@H](O)CN(c3ccc(F)c(C#N)c3)C2)nnc1-c1ccc(C)o1 (racemic) [Example 329.0]	pEC50	9.42
COc1cccc(OC)c1-n1c(NS(=O)(=O)[C@@H]2C[C@H]2c2ccc(Cl)cc2)nnc1-c1ccco1 (single isomer, unassigned) [Example 192.0]	pEC50	8.55
COc1cccc(OC)c1-n1c(NS(=O)(=O)[C@H](C)[C@@H](O)c2ncc(F)cn2)nnc1-c1ccc(C)o1 (single isomer, unassigned) [Example 93.0]	pEC50	9.85

###

- target system: APJ receptor (Homo sapiens (Human), UniProt P35414)
- Sequence (P35414 whole entry): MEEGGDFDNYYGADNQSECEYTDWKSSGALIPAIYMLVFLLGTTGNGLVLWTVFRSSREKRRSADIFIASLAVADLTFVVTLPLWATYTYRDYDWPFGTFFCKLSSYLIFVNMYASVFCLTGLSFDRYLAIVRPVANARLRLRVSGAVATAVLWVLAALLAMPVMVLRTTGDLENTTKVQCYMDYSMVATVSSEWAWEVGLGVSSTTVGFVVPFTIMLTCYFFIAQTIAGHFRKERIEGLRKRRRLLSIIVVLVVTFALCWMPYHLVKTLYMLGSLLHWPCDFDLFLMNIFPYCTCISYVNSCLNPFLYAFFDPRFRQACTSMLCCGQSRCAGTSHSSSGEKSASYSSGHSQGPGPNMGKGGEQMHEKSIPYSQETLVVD
- run description: [35S]GTPγS binding assay on membranes from CHO cells stably expressing human APJ receptor
- assay conditions: membranes of CHO cells stably expressing human APJ receptor, means of several independent experiments, read-out: Activity hAPJ SPA EC50 IP
endpoint name: EC50 (nM)

molecule	assay result
COc1cccc(OC)c1-n1c(NS(=O)(=O)[C@H](C)[C@H](O)c2cscn2)nnc1-c1ccc(C)o1 (single isomer, unassigned) [Example 298.0]	11
COc1cccc(OC)c1-n1c(NS(=O)(=O)CCN2C(=O)[C@@H](C)C[C@]2(C)C#N)nnc1-c1ccco1 (single isomer, unassigned) [Example 168.0]	0.97
COc1cccc(OC)c1-n1c(NS(=O)(=O)[C@H](C)Cc2ccc(C)nn2)nnc1-c1ccc(C)o1 (single isomer, unassigned) [Example 31.0]	1.9

###

- target system: APJ receptor (Homo sapiens (Human), UniProt P35414)
- run description: [35S]GTPγS binding assay on membranes from CHO cells stably expressing human APJ receptor
- assay conditions: membranes of CHO cells stably expressing human APJ receptor, means of several independent experiments, read-out: Activity hAPJ SPA EC50 IP
Entries annotated with measured log10(EC50)
endpoint name: log10(EC50) (log10 of the value in pM)

compound	endpoint name	assay result
COc1cccc(OC)c1-n1c(NS(=O)(=O)[C@@H](C)[C@@H](C)c2ncc(F)cn2)nnc1-c1ccco1 (racemic)	log10(EC50)	2.40
COc1cccc(OC)c1-n1c(NS(=O)(=O)[C@@H](C)CN2C(=O)CCC[C@]2(C)C#N)nnc1-c1ccco1 (single isomer, unassigned)	log10(EC50)	4.91
COc1ccccc1-n1c(NS(=O)(=O)[C@@H](C)Cc2ncc(F)cn2)nnc1-c1ccco1.COc1ccccc1-n1c(NS(=O)(=O)[C@H](C)Cc2ncc(F)cn2)nnc1-c1ccco1 (mixture of isomers)	log10(EC50)	4.92
COc1cccc(OC)c1-n1c(NS(=O)(=O)[C@@H](C)[C@H](O)c2coc(C)n2)nnc1-c1ccc(C)o1 (single isomer, unassigned)	log10(EC50)	2.93
COc1cccc(OC)c1-n1c(NS(=O)(=O)[C@@H](C)[C@H](O)c2ccc(F)c(C#N)c2)nnc1-c1ccc(C)o1 (single isomer, unassigned)	log10(EC50)	3.04
COc1cccc(OC)c1-n1c(NS(=O)(=O)[C@@H](C)[C@@](C)(O)c2ccc(C#N)cn2)nnc1-c1ccc(C)o1 (single isomer, unassigned)	log10(EC50)	2.54
COc1cccc(OC)c1-n1c(NS(=O)(=O)c2cccc(CO)c2)nnc1-c1ccc(C)o1	log10(EC50)	4.63
COc1cccc(OC)c1-n1c(NS(=O)(=O)[C@@H](C)[C@H](O)c2cn(C)cn2)nnc1-c1ccc(C)o1 (single isomer, unassigned)	log10(EC50)	2.86
COc1cccc(OC)c1-n1c(NS(=O)(=O)CCc2ncc(Cl)cc2C2=CCN(C)CC2)nnc1-c1ccco1	log10(EC50)	2.32
COc1cccc(OC)c1-n1c(NS(=O)(=O)C[C@@H](C)c2ncc(F)cn2)nnc1-c1ccc(C)o1 (single isomer, unassigned) [Example 126.0]	log10(EC50)	2.65
COc1cccc(OC)c1-n1c(NS(=O)(=O)CCc2ncc(Cl)cc2CN2CCOCC2)nnc1-c1ccco1	log10(EC50)	2.41
COc1cccc(OC)c1-n1c(NS(=O)(=O)C[C@@H](C)c2ncc(F)cn2)nnc1-c1ccco1 (mixture of isomers)	log10(EC50)	3.52

###

- target system: APJ receptor (Homo sapiens (Human))
- run description: [35S]GTPγS binding assay on membranes from CHO cells stably expressing human APJ receptor
- assay conditions: membranes of CHO cells stably expressing human APJ receptor, means of several independent experiments, read-out: Activity hAPJ SPA EC50 IP
pEC50: −log10 of the molar value.
Entries annotated with measured pEC50

compound	target system	pEC50
COc1cccc(OC)c1-n1c(NS(=O)(=O)CCc2ncc(Cl)cc2-c2cc[nH]n2)nnc1-c1ccco1	APJ receptor (Homo sapiens (Human))	9.49
COCC[C@@H]([C@H](C)c1ncc(F)cn1)S(=O)(=O)Nc1nnc(-c2ccc(C)o2)n1-c1c(OC)cccc1OC (single isomer, unassigned) [Example 67.0]	APJ receptor (Homo sapiens (Human))	9.44
COc1cccc(OC)c1-n1c(NS(=O)(=O)[C@@H](C)[C@@H](O)c2ccc(F)cn2)nnc1-c1ccc(C)o1 (single isomer, unassigned) [Example 57.0]	APJ receptor (Homo sapiens (Human))	9.96
COc1cccc(OC)c1-n1c(NS(=O)(=O)[C@H](C)[C@@H](OC)c2cn3ccccc3n2)nnc1-c1ccc(C)o1 (racemic) [Example 264.0]	APJ receptor (Homo sapiens (Human))	9.78
CCO[C@H](c1ncc(C)cn1)[C@H](C)S(=O)(=O)Nc1nnc(-c2ccc(C)o2)n1-c1c(OC)cccc1OC (single isomer, unassigned)	APJ receptor (Homo sapiens (Human))	10.08
COc1cccc(OC)c1-n1c(NS(=O)(=O)[C@H](C)Cc2ccc(F)cn2)nnc1-c1ccco1 (single isomer, unassigned)	APJ receptor (Homo sapiens (Human))	9.43
